- assayedTarget: T1, HLA-DR DRB1*0404 (human)
- T1 chain 1: not shown
- T1 chain 2: not shown
- method: radioligand inhibition, purified HLA-DR
- measurementConditions: remark: other sources report otherwise
experimentalReadout: IC50 (nM)

(A) TEILKGGVLIQRNPQ [Her2/neu.146]
(B) EALLESSLRQAQQNM [Cyclin D1.252]
(C) GARMPCAELVREPGC [Peptide 9019.0181]
(D) SITVSASGTSPGLSA [CEA.671 peptide 9919.0143]
(E) DNSIRPEELLQMELL [Cyclin D1.129]
## Input Take the binders listed above and rank them by IC50; the top slot goes to the highest value. Please write the labels in the order that was asked for.
## Output C, E, B, A, D

(A) KELAVFREKVTEQHR [Peptide 9019.0186]
(B) FYTLHVIKSDLVNEE [CEA.119 peptide 9019.0114]
## Input Which value of IC50 is greater, the one for A or the one for B ? Kindly state the label of the option you pick.
## Output B

src = patent US20100310640A1
